Tested on: HCT-8
Assay Name: Induction of apoptosis in human HCT8 cells assessed early apoptosis level at 50 ug/ml incubated for 24 hrs by annexin V-FITC and propidium iodide staining based flow cytometry (reference value: 0.75%)
Assay type: functional
Property Label: Activity

Worked set:
Cn1cc(C(=O)NC(=S)Nc2ccc(I)cc2)cn1	2.31%
Cc1cs/c(=N\C(=O)c2cnn(C)c2)n1-c1ccc(Br)cc1	4.47%

input: Entry Cn1cc(C(=O)NC(=S)Nc2ccccc2I)cn1 , system HCT-8: what Activity was measured?
output: 2.01%

====

Documented Activity across a set of molecules
Test system: HCT-8
Assay Name: Induction of apoptosis in human HCT8 cells assessed necrosis level at 50 ug/ml incubated for 24 hrs by annexin V-FITC and propidium iodide staining based flow cytometry (reference value: 1.12%)
Format: functional
Give the value in % but do not write % after it.

Cc1cs/c(=N\C(=O)c2cnn(C)c2)n1-c1ccc(I)cc1	1.41

input: Entry Cn1cc(C(=O)NC(=S)Nc2ccccc2Br)cn1 : reported Activity = ?
output: 1.87

input: Entry Cn1cc(C(=O)/N=C2\SCC(C)(O)N2c2ccc(Br)cc2)cn1 (centres undefined) : reported Activity = ?
output: 1.34

input: Entry Cn1cc(C(=O)NC(=S)Nc2ccc(Br)cc2)cn1 : reported Activity = ?
output: 1.73

input: Entry Cn1cc(C(=O)NC(=S)Nc2cccc(Br)c2)cn1 : reported Activity = ?
output: 7.58

input: Entry Cn1cc(C(=O)NC(=S)Nc2ccc(I)cc2)cn1 : reported Activity = ?
output: 1.25

input: Entry Cc1cs/c(=N\C(=O)c2cnn(C)c2)n1-c1ccc(Br)cc1 : reported Activity = ?
output: 2.66

input: Entry Cn1cc(C(=O)/N=C2\SCC(C)(O)N2c2ccc(I)cc2)cn1 (centres undefined) : reported Activity = ?
output: 1.44

input: Entry Cn1cc(C(=O)NC(=S)Nc2ccccc2I)cn1 : reported Activity = ?
output: 2.49

====

Assay Name: Cytotoxicity against human Hep2 cells assessed as cell viability at 12.5 ug/ml incubated for 24 hrs by MTS assay
Assay type: functional
Assay Context: HEp-2, 24 h, read-out: Activity
Property Label: viability at 12.5 µg/mL (%)
Give the value in % but do not write % after it.

Worked set:
Cc1cs/c(=N\C(=O)c2cnn(C)c2)n1-c1ccc(I)cc1	100
Cn1cc(C(=O)NC(=S)Nc2ccccc2Br)cn1	100

# next compound below
input: Entry Cn1cc(C(=O)NC(=S)Nc2cccc(Br)c2)cn1 : reported viability at 12.5 µg/mL = ?
output: 100

====

Documented viability at 12.5 µg/mL across a set of molecules
System: THP-1
Assay Name: Cytotoxicity against human THP1 cells assessed as cell viability at 12.5 ug/ml incubated for 24 hrs by MTS assay
Format: functional
Assay Context: THP-1, 24 h, read-out: Activity
Give the value in % but do not write % after it.

Worked set:
Cc1cs/c(=N\C(=O)c2cnn(C)c2)n1-c1ccc(Br)cc1	97
Cn1cc(C(=O)NC(=S)Nc2ccc(I)cc2)cn1	100

# next molecule below
input: Entry Cn1cc(C(=O)NC(=S)Nc2cccc(Br)c2)cn1 : reported viability at 12.5 µg/mL = ?
output: 77

====

Assay Name: Reduction in PRKAA2 gene expression in human Hep2 cells at 10 ug/ml incubated for 24 hrs by real-time PCR method
Format: functional, cell-based
Assay Context: HEp-2
The source made the active and inactive calls. The rule behind the calls is not given here.
// one of active, inactive, no free text

The following compounds have reported results that may help.
Cn1cc(C(=O)/N=C2\SCC(C)(O)N2c2ccc(Br)cc2)cn1 (centres undefined)	active
Cc1cs/c(=N\C(=O)c2cnn(C)c2)n1-c1ccc(I)cc1	active
Cn1cc(C(=O)NC(=S)Nc2ccc(Br)cc2)cn1	active
Cn1cc(C(=O)NC(=S)Nc2ccc(I)cc2)cn1	active
Cn1cc(C(=O)NC(=S)Nc2ccccc2Br)cn1	inactive

input: Hi, sorry to bother you, what did the test record for Cn1cc(C(=O)/N=C2\SCC(C)(O)N2c2ccc(I)cc2)cn1 (centres undefined) ?
output: active

input: Hi, sorry to bother you, what did the test record for Cn1cc(C(=O)NC(=S)Nc2ccccc2I)cn1 ?
output: active

input: Hi, sorry to bother you, what did the test record for Cc1cs/c(=N\C(=O)c2cnn(C)c2)n1-c1ccc(Br)cc1 ?
output: active

input: Hi, sorry to bother you, what did the test record for Cn1cc(C(=O)NC(=S)Nc2cccc(Br)c2)cn1 ?
output: active

====

Assay Name: Reduction in PRKAA2 gene expression in human Hep2 cells at 50 ug/ml incubated for 24 hrs by real-time PCR method
Type: functional, cell-based
Assay Context: HEp-2
Activity calls are given as the source filed them. The rule behind the calls is not given here.
// one of yes (1) (active), no (0) (inactive), no free text

Cn1cc(C(=O)NC(=S)Nc2ccccc2I)cn1	yes (1)
Cc1cs/c(=N\C(=O)c2cnn(C)c2)n1-c1ccc(I)cc1	yes (1)

input: Hi, sorry to bother you, what did the test record for Cn1cc(C(=O)NC(=S)Nc2ccccc2Br)cn1 ?
output: no (0)

input: Hi, sorry to bother you, what did the test record for Cn1cc(C(=O)NC(=S)Nc2ccc(I)cc2)cn1 ?
output: yes (1)

input: Hi, sorry to bother you, what did the test record for Cn1cc(C(=O)/N=C2\SCC(C)(O)N2c2ccc(I)cc2)cn1 (stereo not drawn) ?
output: yes (1)

====

Assay Name: Cytotoxicity against human HCT8 cells assessed as cell viability at 12.5 ug/ml incubated for 24 hrs by MTS assay
Assay type: functional
Assay Context: HCT-8, 24 h, read-out: Activity
Property Label: viability at 12.5 µg/mL (%)
Give the value in % but do not write % after it.

Worked set:
Cn1cc(C(=O)NC(=S)Nc2ccc(Br)cc2)cn1	100
Cn1cc(C(=O)NC(=S)Nc2cccc(Br)c2)cn1	94
Cn1cc(C(=O)/N=C2\SCC(C)(O)N2c2ccc(Br)cc2)cn1 (stereo not given)	98
Cn1cc(C(=O)/N=C2\SCC(C)(O)N2c2ccc(I)cc2)cn1 (stereo not given)	100

# next molecule below
input: Entry Cn1cc(C(=O)NC(=S)Nc2ccc(I)cc2)cn1 : reported viability at 12.5 µg/mL = ?
output: 100

====

Tested on: HCT-8
Assay Name: Induction of apoptosis in human HCT8 cells assessed early apoptosis level at 50 ug/ml incubated for 24 hrs by annexin V-FITC and propidium iodide staining based flow cytometry (reference value: 0.75%)
Type: functional
Property Label: Activity
Could you give the number and then its unit, please?

Worked set:
Cn1cc(C(=O)NC(=S)Nc2ccc(Br)cc2)cn1	2.78%
Cn1cc(C(=O)NC(=S)Nc2ccccc2Br)cn1	1.23%
Cn1cc(C(=O)/N=C2\SCC(C)(O)N2c2ccc(Br)cc2)cn1 (stereo unspecified)	6.22%
Cn1cc(C(=O)/N=C2\SCC(C)(O)N2c2ccc(I)cc2)cn1 (stereo unspecified)	4.96%

input: Entry Cc1cs/c(=N\C(=O)c2cnn(C)c2)n1-c1ccc(I)cc1 : reported Activity = ?
output: 2.91%

input: Entry Cn1cc(C(=O)NC(=S)Nc2cccc(Br)c2)cn1 : reported Activity = ?
output: 7.07%

====

Assay Name: Reduction in PRKAA2 gene expression in human Hep2 cells at 50 ug/ml incubated for 24 hrs by real-time PCR method
Type: functional, cell-based
Assay Context: HEp-2
Active and inactive are the calls of the source. No cut-off for these calls is given here.
Property Label: Activity

Cn1cc(C(=O)/N=C2\SCC(C)(O)N2c2ccc(Br)cc2)cn1 (stereo not drawn)	Active
Cc1cs/c(=N\C(=O)c2cnn(C)c2)n1-c1ccc(Br)cc1	Active
Cn1cc(C(=O)NC(=S)Nc2ccc(Br)cc2)cn1	Active
